From: patent US20020107401A1

Parameter Sterility (%): see the listing below.
Tested on: wheat variety 'OSLO'
Test: Chemical hybridizing agent assay for male sterility (male gametocidal activity), foliar spray, seed counts
Type: in vivo
Settings: Table 2; rate 125 μg/plant, foliar, Feekes 6
propertyName: Sterility (%)

- compound: "COP(=O)(OC)c1cnn(-c2ccc(Cl)cc2)c1OCc1ccc(Cl)cc1 [Compound 4a]"
  valueMeasured: 0
- compound: "COP(=O)(OC)c1cnn(-c2ccc(Cl)cc2)c1O [Compound 3a]"
  valueMeasured: 0
- compound: "COP(=O)([O-])c1cnn(-c2cc(C)cc(C)c2)c1O.[K+] [Compound 3l]"
  valueMeasured: 17
- compound: "O=P(O)(O)C1=CNN(c2ccc(Cl)cc2)C1O (stereo not drawn) [Compound 3j]"
  valueMeasured: 7
- compound: "Cc1cc(C)cc(-n2ncc(P(=O)([O-])O)c2O)c1.[K+] [Compound 3n]"
  valueMeasured: 7
- compound: "COP(=O)(OC)c1cnn(-c2ccc(Cl)cc2)c1OCc1ccccc1[N+](=O)[O-] [Compound 4b]"
  valueMeasured: 0
